Values were extracted from ChEMBL document CHEMBL1201862.

System: KM12
Test: NCI tumour cell line growth inhibition, 48 h
Calls of active or inactive are those of the source. Cut-off read from the data, not from the text of the source: active = GI50 up to about 1.1 µM and inactive = higher.
Each entry below carries its recorded GI50.
reported-metric: GI50

compound	reported-value
CCOc1c2ccsc2c(OCC)c2ccsc12	3.77 µM (inactive)
CCCCCCCCCCC(O)C1CCC(C(O)CCC(O)C2CCC(CCCCCCC[C@H](O)CC3=C[C@@H](C)OC3=O)O2)O1 (some centres not stated)	6.1 µM (inactive)
CC1=C[C@@H](C)C[C@]2(C)CC[C@H](O2)[C@]23CC[C@](C(=O)O)(C[C@H](O2)[C@@H]2O[C@@](C)(CC2=O)[C@@H](O)[C@H]2CC[C@@]4(CCC[C@@H](O4)[C@H](C)C(=O)O[C@H]4C[C@H]([C@]5(O)OCC[C@H](C)[C@@H]5O)O[C@H]4C=C1)O2)O3	> 10 µM (inactive)
c1ccc(OCc2nnc(CCCCCCCCc3nnc(COc4ccccc4)o3)o2)cc1	> 100 µM (inactive)
CC(C)C(Cl)CCC(C)(Cl)C(=O)CBr (configuration not stated)	14.5 µM (inactive)
C[Si](C)(C)/C(I)=C/CO	23 µM (inactive)
C=C[C@@]1(C)CC(=O)[C@]2(O)[C@@]3(C)[C@@H](OC(C)=O)CCC(C)(C)[C@@H]3[C@H](O)[C@H](OC(C)=O)[C@@]2(C)O1	13.4 µM (inactive)
COc1ccc(/C=C2/C(=O)N(C(=O)c3ccc(Cl)cc3)N=C2C)cc1OC	> 100 µM (inactive)
COc1cccc(/N=C/c2cc3cc(Br)ccc3nc2Cl)c1	9.75 µM (inactive)
Cc1ccc(S(=O)(=O)N(CCN2C(=O)c3ccccc3C2=O)c2cc3c4c(c2)Oc2cc(N(CCN5C(=O)c6ccccc6C5=O)S(=O)(=O)c5ccc(C)cc5)cc5c2C4(C)c2c(cc(N(CCN4C(=O)c6ccccc6C4=O)S(=O)(=O)c4ccc(C)cc4)cc2O5)O3)cc1	> 100 µM (inactive)
CCOC(=O)c1cc(Br)c(-c2onc(C)c2Br)n1C	21.8 µM (inactive)
CC(=O)Oc1cccc2c1C(=O)C(Br)(Br)CCC2	8.49 µM (inactive)
CCCCCCCCCCCCCCCCNc1nc(=O)n(C2CC(O)C(COP(=O)(O)OC3CC(n4cc(F)c(=O)[nH]c4=O)OC3CO)O2)cc1F (configuration not stated)	20.7 µM (inactive)
Cc1cn(CCCCCOC(=O)NC(CCCNC(=N)N)C(=O)O)c(=O)[nH]c1=O (configuration not stated)	19 µM (inactive)
Fc1ccc(OCc2ccc3nc(-c4ccccc4)c(Cl)nc3c2)cc1	51.6 µM (inactive)
O=C(Cc1nc2sc3c(c2c(=O)[nH]1)CCCC3)Nc1ccccc1	> 100 µM (inactive)
CC(C)(C)OC(=O)N1CC(O)O[C@H](c2ccccc2)[C@@H]1c1ccccc1 (some centres not stated)	19.2 µM (inactive)
CCC(Oc1ccc(OC)c2ccccc(=O)c12)C(=O)O (configuration not stated)	> 100 µM (inactive)
Cc1ccc(S(=O)(=O)OC2CC=CC2)cc1	> 100 µM (inactive)
CCOc1ncnc2ccc(Cl)c(I)c12	91 µM (inactive)
COc1ccccc1/C=N/N=C(\N)NO	12.7 µM (inactive)
O=C1c2c(ccc3c2CCC3)CC1Cc1ccc2c(c1)CCC2 (configuration not stated)	25.2 µM (inactive)
O=C1C(Cl)C(c2cc3cc(Br)ccc3nc2Cl)N1c1ccc(F)c(Cl)c1 (configuration not stated)	3.21 µM (inactive)
CC(C)(CN1CCCCC1)C(=O)/C=C/c1ccc(Cl)cc1	2.95 µM (inactive)
Cc1cc(=O)n2nc(CCl)sc2n1	12.1 µM (inactive)
O=C(c1ccc(Br)cc1)n1c2ccc(Br)cc2c2nc3ccccc3nc21	> 100 µM (inactive)
COc1ccccc1/C=C1\N=C(C)OC1=O	> 100 µM (inactive)
